Test system: Escherichia coli TOP10
Assay: shrunken log2 fold change of peptide-encoding DNA abundance (4.5 h post-induction vs induction); higher = less antimicrobial activity (less host growth inhibition)
Conditions: time post-induction: 4.5 h; library: site-saturation at positions 5, 18, 19, 20
Each entry belongs to exactly one class, chosen by where its shrunken log2 fold change falls: group 1: < -0.2; group 2: ≥ -0.2 and < 0.2; group 3: ≥ 0.2

Past entries and their recorded results:
residues=RRIRQRPPRLPRPRPRPPDAPRP tested_target="Escherichia coli TOP10" category="group 3"
residues=RRIRCRPPRLPRPRPRPEINPRP tested_target="Escherichia coli TOP10" category="group 2"
residues=RRIRLRPPRLPRPRPRPGDWPRP tested_target="Escherichia coli TOP10" category="group 3"
residues=RRIRERPPRLPRPRPRPRIEPRP tested_target="Escherichia coli TOP10" category="group 2"
residues=RRIRMRPPRLPRPRPRPNSEPRP tested_target="Escherichia coli TOP10" category="group 2"

Bin? RRIRYRPPRLPRPRPRPCVNPRP
group 2

* * *

Below: a set of entries, each annotated with reported shrunken log2 fold change.
System: Escherichia coli TOP10
Test: shrunken log2 fold change of peptide-encoding DNA abundance (4.5 h post-induction vs induction); higher = less antimicrobial activity (less host growth inhibition)
Conditions: time post-induction: 4.5 h; library: site-saturation at positions 5, 18, 19, 20

Reference set, count: 6
residues=RRIRDRPPRLPRPRPRPDTEPRP metric="shrunken log2 fold change" result=0.0738
residues=RRIRERPPRLPRPRPRPETSPRP metric="shrunken log2 fold change" result=0.122
residues=RRIRERPPRLPRPRPRPRGFPRP metric="shrunken log2 fold change" result=-0.0872
residues=RRIRERPPRLPRPRPRPWSEPRP metric="shrunken log2 fold change" result=-0.398
residues=RRIRPRPPRLPRPRPRPESHPRP metric="shrunken log2 fold change" result=-0.00995
residues=RRIRGRPPRLPRPRPRPPWQPRP metric="shrunken log2 fold change" result=0.691

Lab note: need shrunken log2 fold change for RRIRSRPPRLPRPRPRPYRLPRP on Escherichia coli TOP10, anyone have it?
-0.279

Lab request: please report shrunken log2 fold change under test system Escherichia coli TOP10 for RRIRFRPPRLPRPRPRPWIVPRP
-0.242

Please state recorded shrunken log2 fold change (tested on Escherichia coli TOP10) of RRIRCRPPRLPRPRPRPLCPPRP
-0.254

* * *

Tested on: Escherichia coli TOP10
Assay: shrunken log2 fold change of peptide-encoding DNA abundance (4.5 h post-induction vs induction); higher = less antimicrobial activity (less host growth inhibition)
Settings: time post-induction: 4.5 h; library: site-saturation at positions 5, 18, 19, 20
Entry class follows shrunken log2 fold change: lower range: < -0.1; middle range: ≥ -0.1 and < 0.08; upper range: ≥ 0.08

Some solved cases for reference:
residues=RRIRWRPPRLPRPRPRPAIAPRP category="upper range"
residues=RRIRWRPPRLPRPRPRPMNFPRP category="middle range"
residues=RRIRGRPPRLPRPRPRPYRPPRP category="lower range"
residues=RRIRKRPPRLPRPRPRPENKPRP category="upper range"
residues=RRIRTRPPRLPRPRPRPNRTPRP category="middle range"
residues=RRIRKRPPRLPRPRPRPNNPPRP category="middle range"

Lab note: sort RRIRSRPPRLPRPRPRPRTIPRP into the matching shrunken log2 fold change band.
lower range

// return the class label for RRIRQRPPRLPRPRPRPYMCPRP
lower range

Into which bin does this sequence go? RRIRRRPPRLPRPRPRPCDNPRP
middle range

* * *

System: Escherichia coli TOP10
Test: shrunken log2 fold change of peptide-encoding DNA abundance (4.5 h post-induction vs induction); higher = less antimicrobial activity (less host growth inhibition)
Conditions: time post-induction: 4.5 h; library: site-saturation at positions 5, 18, 19, 20
METRIC: shrunken log2 fold change
# print the numeric value only

// returns reported shrunken log2 fold change for input RRIRDRPPRLPRPRPRPCNSPRP
-0.0276

Fill blank: measured shrunken log2 fold change of the sequence RRIRPRPPRLPRPRPRPLQSPRP is ____.
0.0308

Look up shrunken log2 fold change for this sequence: RRIRSRPPRLPRPRPRPRNPPRP
0.103

* * *

System: Escherichia coli TOP10
Assay: shrunken log2 fold change of peptide-encoding DNA abundance (4.5 h post-induction vs induction); higher = less antimicrobial activity (less host growth inhibition)
Conditions: time post-induction: 4.5 h; library: site-saturation at positions 5, 18, 19, 20
Classify as follows. Reported shrunken log2 fold change greater than or equal to -0.05: 1 (yes). Reported shrunken log2 fold change below: 0 (no).

Solved entries (count: 4):
residues=RRIRSRPPRLPRPRPRPTAMPRP category="1 (yes)"
residues=RRIRFRPPRLPRPRPRPCLTPRP category="0 (no)"
residues=RRIRLRPPRLPRPRPRPEIWPRP category="1 (yes)"
residues=RRIRSRPPRLPRPRPRPIVVPRP category="1 (yes)"

Could you tell me if the measured shrunken log2 fold change of RRIRRRPPRLPRPRPRPAKCPRP reaches -0.05 or more?
1 (yes)

Textbook exercise: given the entry RRIRDRPPRLPRPRPRPWYCPRP , state whether its shrunken log2 fold change is greater than or equal to -0.05.
0 (no)

* * *

Tested on: Escherichia coli TOP10
Experiment: shrunken log2 fold change of peptide-encoding DNA abundance (4.5 h post-induction vs induction); higher = less antimicrobial activity (less host growth inhibition)
Conditions: time post-induction: 4.5 h; library: site-saturation at positions 5, 18, 19, 20
METRIC: shrunken log2 fold change
Keep the answer to the number alone.

residues=RRIRARPPRLPRPRPRPTQIPRP tested_target="Escherichia coli TOP10" numeric_result=0.553
residues=RRIRKRPPRLPRPRPRPIHPPRP tested_target="Escherichia coli TOP10" numeric_result=0.0728
residues=RRIRDRPPRLPRPRPRPWSWPRP tested_target="Escherichia coli TOP10" numeric_result=0.215
residues=RRIRERPPRLPRPRPRPSWVPRP tested_target="Escherichia coli TOP10" numeric_result=-0.178

Using the record for RRIRVRPPRLPRPRPRPAFGPRP , report its shrunken log2 fold change.
0.18

So what's the measured shrunken log2 fold change for this one? RRIRHRPPRLPRPRPRPWKWPRP
-0.00968

Give the measured shrunken log2 fold change of RRIRDRPPRLPRPRPRPAFDPRP .
0.284

Request the reported shrunken log2 fold change associated with RRIRCRPPRLPRPRPRPFFEPRP
-0.0214

For RRIRERPPRLPRPRPRPLNEPRP , what is its reported shrunken log2 fold change?
-0.13

Query: shrunken log2 fold change; subject: RRIRWRPPRLPRPRPRPYVMPRP
-0.511

If you can, please state the reported shrunken log2 fold change value of RRIRFRPPRLPRPRPRPCSTPRP .
-0.177

Name the reported shrunken log2 fold change value associated with the sequence RRIRTRPPRLPRPRPRPSEVPRP
0.0146

Quick check: shrunken log2 fold change of RRIRNRPPRLPRPRPRPIYEPRP ?
-0.232

Quick one: shrunken log2 fold change of RRIRNRPPRLPRPRPRPVFEPRP ?
0.07

I would be grateful if you could share the reported shrunken log2 fold change for RRIRWRPPRLPRPRPRPYPTPRP .
-0.281

# query: shrunken log2 fold change of entry RRIRYRPPRLPRPRPRPQSRPRP
-0.17

What does the data say about its shrunken log2 fold change? Entry: RRIRWRPPRLPRPRPRPNTDPRP
-0.262

Name the recorded shrunken log2 fold change for RRIRCRPPRLPRPRPRPNHYPRP .
-0.825

Name the recorded shrunken log2 fold change for RRIRTRPPRLPRPRPRPEKVPRP .
-0.292

Using the record for RRIRFRPPRLPRPRPRPYAFPRP , report its shrunken log2 fold change.
-0.193

Please give the measured shrunken log2 fold change for this sequence: RRIRTRPPRLPRPRPRPPAEPRP
0.378

Would you kindly share the measured shrunken log2 fold change for RRIRHRPPRLPRPRPRPGNDPRP ?
-0.583

Give the measured shrunken log2 fold change of RRIRDRPPRLPRPRPRPVLPPRP .
0.0231

* * *

Test system: Escherichia coli TOP10;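 also: peptides expressed intracellularly from a pBAD plasmid library in pooled LB shake-flask culture, induced with 0.3% L-arabinose, DNA abundance read by NGS, three biological replicates, DESeq2 with apeglm shrinkage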
Assay: shrunken log2 fold change of peptide-encoding DNA abundance (4.5 h post-induction vs induction); higher = less antimicrobial activity (less host growth inhibition)
Conditions: time post-induction: 4.5 h; library: site-saturation at positions 5, 18, 19, 20
METRIC: shrunken log2 fold change

State the recorded shrunken log2 fold change for this entry: RRIRLRPPRLPRPRPRPIEFPRP
-0.449

Given the entry RRIRIRPPRLPRPRPRPRLVPRP , report its measured shrunken log2 fold change.
0.22

Fill in the blank: the reported shrunken log2 fold change of RRIRWRPPRLPRPRPRPHMCPRP is ____.
-0.00659

# query: shrunken log2 fold change of entry RRIRKRPPRLPRPRPRPHAWPRP
0.897

What shrunken log2 fold change value was documented for this sequence, RRIRPRPPRLPRPRPRPMSIPRP ?
-0.211

I'd like to know its shrunken log2 fold change. The sequence in question is RRIRWRPPRLPRPRPRPMKSPRP
0.252

shrunken log2 fold change lookup needed for RRIRARPPRLPRPRPRPGLAPRP , thanks.
1
